testedSystem: TBK1 (Homo sapiens (Human))
Sequence (Q9UHD2 whole entry): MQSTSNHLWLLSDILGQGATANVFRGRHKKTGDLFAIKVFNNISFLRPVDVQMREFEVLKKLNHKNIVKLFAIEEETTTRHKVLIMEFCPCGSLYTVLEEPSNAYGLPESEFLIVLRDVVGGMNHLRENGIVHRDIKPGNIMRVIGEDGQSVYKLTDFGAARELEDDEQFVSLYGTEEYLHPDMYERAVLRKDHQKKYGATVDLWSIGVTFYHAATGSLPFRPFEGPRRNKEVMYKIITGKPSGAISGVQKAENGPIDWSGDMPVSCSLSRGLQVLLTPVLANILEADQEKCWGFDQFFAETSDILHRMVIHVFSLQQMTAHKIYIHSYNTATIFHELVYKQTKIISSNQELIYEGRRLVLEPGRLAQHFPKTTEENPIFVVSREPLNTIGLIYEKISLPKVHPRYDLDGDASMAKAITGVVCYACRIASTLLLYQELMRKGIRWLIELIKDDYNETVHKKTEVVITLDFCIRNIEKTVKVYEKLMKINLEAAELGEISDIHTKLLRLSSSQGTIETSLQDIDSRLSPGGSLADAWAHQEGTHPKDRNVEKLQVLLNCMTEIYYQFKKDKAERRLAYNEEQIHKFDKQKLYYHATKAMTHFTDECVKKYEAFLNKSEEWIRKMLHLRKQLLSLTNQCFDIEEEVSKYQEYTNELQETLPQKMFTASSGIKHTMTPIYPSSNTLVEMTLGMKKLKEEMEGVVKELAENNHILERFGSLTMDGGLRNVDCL
test: Lanthascreen TR-FRET kinase inhibition assay, TBK1
Format: biochemical
assayConditions: 20 μM ATP (apparent Km), 8 nM kinase, 2.5 h
Protocol: Compounds of the invention (synthesised as described below) were tested for activity against the IKKε and TBK-1 enzyme as follows: Inhibitions studies were performed using a time-resolved fluorescence-based Lanthascreen™ assay. Phosphorylation of a fluorescein-labelled substrate peptide is measured using terbium-labeled phosphospecific antibodies. Kinase inhibition assays (10 μL) were performed at 20° C. in 384-well plate format. […]
Here the recorded IC50 is given for each entry.

Illustrative cases are given below, each with its answer.
N#Cc1cc(-c2ccnc(Nc3cnn(C4CCOCC4)c3)n2)cnc1N1CC[C@H](F)C1 : < 15 nM
CN1CCC(Nc2ccc(Nc3nccc(-c4cnc(NCCO)c(C#N)c4)n3)cn2)CC1 : < 100 nM
COCCNc1cc(Nc2nccc(-c3cnc(N4CC[C@H](F)C4)c(C#N)c3)n2)ccn1 : < 15 nM

Input line: Data request, read-out IC50, for `N#Cc1cc(-c2ccnc(Nc3ccc(NC(=O)CN4CCCC4)nc3)n2)cnc1N1CC[C@H](F)C1`
Output line: < 30 nM

Input line: Looking for the measured IC50 of `N#Cc1cc(-c2ccnc(Nc3cnn(CCO)c3)n2)cnc1N1CC[C@H](F)C1` , can you help?
Output line: < 30 nM

Input line: Entry `CNc1ncc(-c2ccnc(Nc3ccc(NC4CCN(C)CC4)nc3)n2)cc1C#N` : reported IC50 = ?
Output line: < 100 nM

Input line: What value of IC50 has been reported for the following molecule? `N#Cc1cc(-c2ccnc(Nc3ccc(NC4CCNCC4)nc3)n2)cnc1N1CC[C@H](F)C1`
Output line: < 30 nM

Input line: So what's the measured IC50 for this one? `N#Cc1cc(-c2ccnc(Nc3ccc(NC(=O)CN4CCOCC4)nc3)n2)cnc1N1CC[C@H](F)C1`
Output line: < 30 nM

Input line: IC50 for `COCCN(C)Cc1ccc(Nc2nccc(-c3ccc(N4CC[C@H](F)C4)c(C#N)n3)n2)cn1` ?
Output line: < 30 nM

Input line: What value of IC50 has been reported for the following molecule? `N#Cc1cc(-c2ccnc(Nc3cccc(C(=O)NC4CCNCC4)c3)n2)cnc1N[C@@H]1CCOC1`
Output line: < 1000 nM

Input line: Could you share which IC50 value was measured for `C[C@H]1COCCN1Cc1ccc(Nc2nccc(-c3ccc(N4CC[C@H](F)C4)c(C#N)n3)n2)cn1` ?
Output line: < 15 nM
